The reported numbers originate from patent US20040121946A9.

system: HLA-DR molecules (DR1, DR4w4, DR7, DRB5*0101, DRB1*1501, DRB1*1101, DRB1*0802, DRB1*1302); experiment: DR supertype cross-reactive binding; parameters: species or system human; conditions: number of the 8 DR alleles bound
Listing of recorded Broad Binding (5/8) by entry.

>  <ENTRY_SMILES>
CC[C@H](C)[C@H](NC(=O)[C@H](C)NC(=O)[C@@H](NC(=O)[C@@H]1CCCN1C(=O)[C@@H](NC(=O)[C@H](CCCCN)NC(=O)[C@@H](NC(=O)[C@H](CC(N)=O)NC(=O)[C@H](CCC(=O)O)NC(=O)CN)C(C)C)[C@@H](C)CC)C(C)C)C(=O)N[C@@H](CCCCN)C(=O)N[C@H](C(=O)N[C@@H](CC(C)C)C(=O)N[C@@H](CCCNC(=N)N)C(=O)N[C@@H](CCC(=O)O)C(=O)O)C(C)C

>  <EXPERIMENTAL_RESULT>
2

$$$$

Next item in the queue.
Exercise: Fill in the blank: the reported Broad Binding (5/8) of `CC[C@H](C)[C@H](NC(=O)[C@H](CCCNC(=N)N)NC(=O)CNC(=O)[C@H](CCCNC(=N)N)NC(=O)[C@@H](NC(=O)[C@@H](NC(=O)[C@H](CCC(N)=O)NC(=O)[C@H](CC(C)C)NC(=O)[C@H](CC(N)=O)NC(=O)[C@H](CCC(N)=O)NC(=O)[C@H](Cc1ccccc1)NC(=O)[C@@H](NC(=O)[C@H](CO)NC(=O)[C@@H](N)CC(C)C)C(C)C)C(C)C)[C@@H](C)CC)C(=O)N[C@@H](CC(C)C)C(=O)O` is ____.
Solution: 6
